Recorded values, source patent US11872225B2.

EXPERIMENTAL_SYSTEM: wild type PKM2 (Homo sapiens, UniProt P14618)
Sequence (P14618 whole entry): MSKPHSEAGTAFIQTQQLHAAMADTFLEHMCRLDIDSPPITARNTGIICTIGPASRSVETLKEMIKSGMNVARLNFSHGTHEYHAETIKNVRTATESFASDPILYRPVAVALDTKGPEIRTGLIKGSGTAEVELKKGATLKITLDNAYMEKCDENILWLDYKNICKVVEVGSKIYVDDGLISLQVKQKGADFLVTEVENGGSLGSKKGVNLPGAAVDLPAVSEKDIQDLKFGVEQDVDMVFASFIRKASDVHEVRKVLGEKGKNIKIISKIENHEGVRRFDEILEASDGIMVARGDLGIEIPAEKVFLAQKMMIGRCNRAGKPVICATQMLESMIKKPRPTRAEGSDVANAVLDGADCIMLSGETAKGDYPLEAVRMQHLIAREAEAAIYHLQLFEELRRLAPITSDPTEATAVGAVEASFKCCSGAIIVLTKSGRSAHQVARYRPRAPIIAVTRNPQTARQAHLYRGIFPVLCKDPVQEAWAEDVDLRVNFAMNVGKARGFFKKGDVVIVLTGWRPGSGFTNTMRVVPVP
PROTOCOL_NOTES: PKM2 Assay (LDH/NADH-coupled, absorbance at 340 nm)
Assay type: biochemical
MEASUREMENT_SETUP: wild type PKM2 activation; 60 min preincubation at 25° C.; ADP 0.4 mM, PEP 0.11 mM; read-out: PKM2 WT AC50
Could you please report measured AC50 for the items listed next?

INSERT INTO measurements (compound, experimental_system, measurement_name, observed_result) VALUES
  ('Cn1c2nc(Cc3ccccn3)sc2c2cnn(CC3CCOCC3)c(=O)c21', 'wild type PKM2 (Homo sapiens, UniProt P14618)', 'AC50', '> 0.8 µM'),
  ('Cn1c2nc(Cc3c[nH]nn3)sc2c2cnn(Cc3cc[nH]n3)c(=O)c21', 'wild type PKM2 (Homo sapiens, UniProt P14618)', 'AC50', '< 0.3 µM'),
  ('Cn1c2nc(Cn3ccnc3)sc2c2cnn(Cc3cccc(C(N)=O)c3)c(=O)c21', 'wild type PKM2 (Homo sapiens, UniProt P14618)', 'AC50', '< 0.3 µM'),
  ('CSc1nc2c(s1)c1cnn(Cc3ccc(S(N)(=O)=O)cc3)c(=O)c1n2C', 'wild type PKM2 (Homo sapiens, UniProt P14618)', 'AC50', '> 0.8 µM');

Could I get AC50 for every one of these entries?
1. Cn1c2nc(Cc3cc[nH]n3)sc2c2cnn(Cc3ccnc(N)n3)c(=O)c21
2. Cc1nc2c(s1)c1cnn(Cc3cccc4[nH]ncc34)c(=O)c1n2C

["< 0.3 µM", "< 0.3 µM"]

Could I get AC50 for every one of these entries?
1. Cn1c2nc(Cc3cc[nH]n3)sc2c2cnn(Cc3ccn[nH]3)c(=O)c21
2. Cn1c2nc(Cc3ccccn3)sc2c2cnn(Cc3nccs3)c(=O)c21
3. Cn1ccc(CCn2ncc3c4sc(Cc5cccnc5)nc4n(C)c3c2=O)n1
4. Cn1c2nc([S+](C)[O-])sc2c2cnn(Cc3cccc4c3CCNC4)c(=O)c21 (stereo not drawn)
5. Cc1nc2c(s1)c1cnn(CCOCCO)c(=O)c1n2C
6. Cn1c2nc(Cc3csc(C(N)=O)n3)sc2c2cnn(Cc3cccc4[nH]ncc34)c(=O)c21

["< 0.3 µM", "< 0.3 µM", "0.301 to 0.8 µM", "< 0.3 µM", "> 0.8 µM", "> 0.8 µM"]
